- SYSTEM_UNDER_TEST: blaCTX-M15 (Escherichia coli O25b:H4, UniProt A0A5R8T042)
- Sequence (A0A5R8T042 29-291): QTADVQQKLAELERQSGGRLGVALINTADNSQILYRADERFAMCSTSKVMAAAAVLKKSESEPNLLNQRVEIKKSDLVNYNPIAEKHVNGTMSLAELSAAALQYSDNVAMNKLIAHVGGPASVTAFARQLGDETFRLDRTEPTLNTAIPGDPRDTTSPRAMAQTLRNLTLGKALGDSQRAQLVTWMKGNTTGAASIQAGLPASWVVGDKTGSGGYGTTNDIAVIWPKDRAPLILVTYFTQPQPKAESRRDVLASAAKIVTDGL
- METHOD_NOTES: Beta-lactamase inhibition assay
REPORTED_METRIC: Ki
Write your answer as a measured quantity: the number, then the unit.

[ask] For the compound O=C(O)[C@H]1/C(=C/CO)O[C@@H]2CC(=O)N21 , what Ki is on record?
[reply] 38.9 µM
